subject_of_test: recombinant human NK3 receptor (Homo sapiens)
assay_name: [3H]SR142801 competition binding assay
protocol_conditions: [3H]SR142801, membranes from HEK293 cells transiently expressing recombinant human NK3 receptor; read-out: hNK3 Ki
Method: [^3H]SR142801 Competition Binding Assay hNK3 receptor binding experiment were performed using [^3H]SR142801 (Catalog No. TRK1035, specific activity: 74.0 Ci/mmol, Amersham, GE Healthcare UK limited, Buckinghamshire, UK) and membrane isolated from HEK293 cells transiently expressing recombinant human NK3 receptor. […] Nonspecific binding was measured in the presence of 10 μM SB222200 for both radioligands. […]
observed_property: Ki (nM)
Use nM as the unit, but write only the number.

- compound: "CC(CCN1CCN(S(C)(=O)=O)CC1)(C(=O)N[C@H](CO)c1ccc(F)cc1)c1ccc(Cl)c(Cl)c1 (stereo partly shown)"
  Ki (nM): 397
- compound: "CC(CCN1CCN(S(C)(=O)=O)CC1)(C(=O)NCc1ccc(C(F)(F)F)c(F)c1)c1ccc(Cl)c(Cl)c1 (stereo not shown)"
  Ki (nM): 67.1
- compound: "CC(CCN1CCN(S(C)(=O)=O)CC1)(C(=O)NCc1ccc(Cl)c(F)c1)c1ccc(Cl)c(Cl)c1 (stereo not shown)"
  Ki (nM): 133
- compound: "C[C@H]1CN(CCC(C)(C(=O)NCc2ccc(Cl)c(C(F)(F)F)c2)c2ccc(Cl)c(Cl)c2)CCN1S(C)(=O)=O (stereo partly shown)"
  Ki (nM): 45.2
- compound: "CN(Cc1cccc(Cl)c1)C(=O)C(C)(CCN1CCN(S(C)(=O)=O)CC1)c1ccc(Cl)c(Cl)c1 (stereo not shown)"
  Ki (nM): 145

Give recorded Ki with recombinant human NK3 receptor (Homo sapiens) for the following compound: CC(CCN1CCCN(S(C)(=O)=O)CC1)(C(=O)NCc1ccc(OC(F)(F)F)cc1)c1ccc(Cl)c(Cl)c1 (stereo not shown)
128

Give recorded Ki with recombinant human NK3 receptor (Homo sapiens) for the following compound: CC(CCN1CCCN(S(C)(=O)=O)CC1)(C(=O)NCc1cc(C(F)(F)F)ccc1F)c1ccc(Cl)c(Cl)c1 (stereo not shown)
136

====

subject_of_test: recombinant human NK3 receptor (Homo sapiens, UniProt P29371)
Sequence (P29371 whole entry): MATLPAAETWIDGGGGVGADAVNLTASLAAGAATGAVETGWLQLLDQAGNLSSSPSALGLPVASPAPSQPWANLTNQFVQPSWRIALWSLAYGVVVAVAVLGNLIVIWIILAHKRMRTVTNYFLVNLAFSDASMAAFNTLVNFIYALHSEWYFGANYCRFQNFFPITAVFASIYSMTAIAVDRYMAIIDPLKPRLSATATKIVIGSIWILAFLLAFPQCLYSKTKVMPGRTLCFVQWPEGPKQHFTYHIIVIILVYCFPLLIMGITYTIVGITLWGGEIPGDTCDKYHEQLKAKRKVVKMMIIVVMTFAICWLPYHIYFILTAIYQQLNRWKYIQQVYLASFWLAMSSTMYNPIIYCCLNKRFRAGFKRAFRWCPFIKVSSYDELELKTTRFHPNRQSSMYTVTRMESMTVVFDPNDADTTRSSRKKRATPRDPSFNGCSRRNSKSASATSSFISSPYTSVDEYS
assay_name: [3H]SR142801 competition binding assay
protocol_conditions: [3H]SR142801, membranes from HEK293 cells transiently expressing recombinant human NK3 receptor; read-out: hNK3 Ki
observed_property: pKi
Here pKi is given on a logarithmic scale as minus log10 of the concentration in mol/L.

# count of solved cases: 3
- compound: "COc1ccc(CN(C)C(=O)C(C)(CCN2CCN(S(C)(=O)=O)[C@H](C)C2)c2ccc(Cl)c(Cl)c2)cc1F (some centres unmarked) [Example 31]"
  pKi: 6.96
- compound: "C[C@@H]1CN(CCC(C)(C(=O)NCc2cc(C(F)(F)F)ccc2F)c2ccc(Cl)c(Cl)c2)CCN1S(C)(=O)=O (some centres unmarked) [Example 46]"
  pKi: 7.00
- compound: "C[C@@H]1CN(CCC(C)(C(=O)NCc2ccc(C#N)cc2)c2ccc(Cl)c(Cl)c2)CCN1S(C)(=O)=O (some centres unmarked) [Example 57]"
  pKi: 6.79

Endpoint output: pKi of CC(CCN1CCN(S(C)(=O)=O)CC1)(C(=O)NCc1ccc(C(F)(F)F)cc1)c1ccc(Cl)c(Cl)c1 (centres unmarked) [Example 27] . Value?
7.09

Endpoint output: pKi of COc1ccc(CN(C)C(=O)C(C)(CCN2CCN(S(C)(=O)=O)CC2)c2ccc(Cl)c(Cl)c2)cc1F (centres unmarked) [Example 25] . Value?
6.87
